# Assay name: Compound solubility in water
# Format: physicochemical
log10(solubility) values for the compounds below.
log10 solubility, µM

Example cases with answers are listed next.
# Compound, log10(solubility)
records = [
    ("CN1CCC(c2ccc3c(c2)CCC(C)(C)N3C(=O)NCCc2ccccc2)CC1", 1.53),
    ("CC1(C)CCc2ccccc2N1C(=O)NCCOc1ccccc1", 0.18),
    ("CN1CC(c2ccc3c(c2)N(C(=O)NCCc2ccccc2)C(C)(C)CC3)C1", 1.51),
    ("CN(C(=O)NCCCc1ccccc1)C12CCC(CC1)CC2", 0.49),
    ("CC1(C)Cc2ccccc2N1C(=O)NCCc1ccccc1", 0.92),
    ("CC1(C)COc2ccccc2N1C(=O)NCCc1ccccc1", 0.49),
    ("COc1ccc(C2COCC(C)(C)N2C(=O)NCCC(F)(F)F)cc1 (stereo not shown)", 1.90),
    ("CN(C(=O)NCCCc1ccccc1)C1CN2CCC1CC2 (stereo not shown)", 1.55),
]

Here's the next entry for you.
log10(solubility) lookup needed for `CC1(C)c2ncccc2CCN1C(=O)NCCc1ccccc1` , thanks.
1.38

###

Measured IC50 by item
# Test target: acid ceramidase (hACR) (Homo sapiens, UniProt Q13510)
# Construct: expressed in transfected cells; cell lysate used
# Sequence (Q13510 143-395 limits assumed): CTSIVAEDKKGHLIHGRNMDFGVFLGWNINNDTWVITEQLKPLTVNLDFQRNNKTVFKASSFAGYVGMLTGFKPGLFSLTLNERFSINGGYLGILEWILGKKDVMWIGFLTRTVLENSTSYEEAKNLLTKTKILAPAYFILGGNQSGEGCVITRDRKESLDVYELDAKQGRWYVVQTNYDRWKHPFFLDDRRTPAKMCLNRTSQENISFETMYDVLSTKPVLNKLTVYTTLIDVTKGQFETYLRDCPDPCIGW
# Sequence (Q13510 22-142 limits assumed): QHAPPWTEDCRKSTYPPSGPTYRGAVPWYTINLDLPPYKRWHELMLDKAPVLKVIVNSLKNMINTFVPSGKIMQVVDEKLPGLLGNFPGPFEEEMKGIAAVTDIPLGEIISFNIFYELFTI
# Assay name: Acid ceramidase inhibition, biochemical fluorescent assay with cell lysates overexpressing acid ceramidase, substrate Rbm14-12
# Experimental context: cell lysates overexpressing acid ceramidase; 1 hr preincubation at RT; pH 4.5; substrate Rbm14-12 6.3 μM; read-out: hACR IC50

Consider the reported IC50 for these compounds:
# Compound, Test target, IC50
rows = [
    ("CC1(C)CCc2ccc(C3COC3)cc2N1C(=O)NCCc1ccccc1", "acid ceramidase (hACR) (Homo sapiens, UniProt Q13510)", "200 to 1000 nM"),
    ("CC1(C)CC(N2CCCC(c3ccccc3)C2)CCN1C(=O)NCCCCc1ccccc1 (mixture of isomers)", "acid ceramidase (hACR) (Homo sapiens, UniProt Q13510)", "> 1000 nM"),
    ("CC1(C)CC(=O)C(c2ccccc2)CN1C(=O)NCCCCc1ccccc1 (centres unmarked)", "acid ceramidase (hACR) (Homo sapiens, UniProt Q13510)", "> 1000 nM"),
]

Recorded IC50 for `CC1(C)CC(F)(F)CCN1C(=O)NCCCc1ccccc1` with acid ceramidase (hACR) (Homo sapiens, UniProt Q13510), please?
< 200 nM

Another compound to check: CCCCCNC(=O)N1CC(Cc2ccccc2)C(N2CCCCC2)CC1(C)C (centres unmarked)
< 200 nM

###

# Test target: acid ceramidase (hACR) (Homo sapiens)
# Construct: expressed in transfected cells; cell lysate used
# Assay name: Acid ceramidase inhibition, biochemical fluorescent assay with cell lysates overexpressing acid ceramidase, substrate Rbm14-12
# Experimental context: cell lysates overexpressing acid ceramidase; 1 hr preincubation at RT; pH 4.5; substrate Rbm14-12 6.3 μM; read-out: hACR IC50
Form field: IC50 (one value per entry).

# Compound, IC50
data = [
    ("CCCCCNC(=O)N1C(c2ccc(OC)c(F)c2)COCC1(C)C (centres unmarked)", "< 200 nM"),
    ("CN1CCC(c2ccc3c(c2)N(C(=O)NCCc2ccccc2)CCC3)CC1", "> 1000 nM"),
    ("O=C(NCCCc1ccc(F)cc1)N1CCCCC12CCCC2", "< 200 nM"),
    ("CC1(C)CC(=O)C(Cc2ccccc2)CN1C(=O)NCCCCc1ccccc1 (centres unmarked)", "< 200 nM"),
]

Requested read-out IC50, target or system acid ceramidase (hACR) (Homo sapiens), entry `CC1(C)CCc2ncccc2N1C(=O)NCCc1ccccc1`
> 1000 nM

###

Recorded pIC50 for the following compounds
# Test target: acid ceramidase (hACR) (Homo sapiens, UniProt Q13510)
# Construct: expressed in transfected cells; cell lysate used
# Assay name: Acid ceramidase inhibition, biochemical fluorescent assay with cell lysates overexpressing acid ceramidase, substrate Rbm14-12
# Experimental context: cell lysates overexpressing acid ceramidase; 1 hr preincubation at RT; pH 4.5; substrate Rbm14-12 6.3 μM; read-out: hACR IC50
pIC50: −log10 of the molar value.

# query: pIC50 of entry `CN1CC(c2ccc3c(c2)N(C(=O)NCCc2ccccc2)C(C)(C)CC3)C1`
> 6.70

###

Overview of reported pIC50 across a group of compounds:
# Test target: acid ceramidase (hACR) (Homo sapiens, UniProt Q13510)
# Construct: expressed in transfected cells; cell lysate used
# Assay name: Acid ceramidase inhibition, biochemical fluorescent assay with cell lysates overexpressing acid ceramidase, substrate Rbm14-12
# Experimental context: cell lysates overexpressing acid ceramidase; 1 hr preincubation at RT; pH 4.5; substrate Rbm14-12 6.3 μM; read-out: hACR IC50
pIC50: −log10 of the molar value.

Here are 4 compounds together with their reported answers.
# Compound, Test target, pIC50
data = [
    ("CC1(C)CC(N2CCCCC2)C(Cc2ccccc2)CN1C(=O)NCCCCc1ccccc1 (stereo not drawn)", "acid ceramidase (hACR) (Homo sapiens, UniProt Q13510)", "> 6.70"),
    ("CC1(C)COc2ccccc2N1C(=O)NCCc1ccccc1", "acid ceramidase (hACR) (Homo sapiens, UniProt Q13510)", "< 6.00"),
    ("COc1ccc(C2COCC(C)(C)N2C(=O)NCc2ccc(F)cc2)cc1 (stereo not drawn)", "acid ceramidase (hACR) (Homo sapiens, UniProt Q13510)", "> 6.70"),
    ("CC1(C)CCCCN1C(=O)NCCCc1ccccc1", "acid ceramidase (hACR) (Homo sapiens, UniProt Q13510)", "> 6.70"),
]

Which measured pIC50 belongs to CC1(C)CC(N2CCCCC2c2ccccc2)CCN1C(=O)NCCCCc1ccccc1 (mixture of isomers) , tested on acid ceramidase (hACR) (Homo sapiens, UniProt Q13510)?
< 6.00

Another: CC1CC(N2CCCCC2)CCN1C(=O)NCCCCc1ccccc1 (mixture of isomers)
> 6.70

Now this one: CC1(C)CC(c2ccccc2)CCN1C(=O)NCCOCc1ccccc1 (stereo not drawn)
< 6.00

Also, COc1ccc(C2COCC(C)(C)N2C(=O)NCCOCC2CC2)cc1 (stereo not drawn) please.
> 6.70

Would you mind doing `CN1CCC(c2cccc3c2CCC(C)(C)N3C(=O)NCCc2ccccc2)CC1` as well?
> 6.70

###

# Test target: acid ceramidase (hACR) (Homo sapiens, UniProt Q13510)
# Construct: expressed in transfected cells; cell lysate used
# Assay name: Acid ceramidase inhibition, biochemical fluorescent assay with cell lysates overexpressing acid ceramidase, substrate Rbm14-12
# Experimental context: cell lysates overexpressing acid ceramidase; 1 hr preincubation at RT; pH 4.5; substrate Rbm14-12 6.3 μM; read-out: hACR IC50
pIC50: −log10 of the molar value. Where a name gives a salt, the structure may show the parent alone.
Quantity: pIC50

# Compound, pIC50
records = [
    ("CN1CCN(C2CCN(C(=O)NCCCCc3ccccc3)C(C)(C)C2)CC1 (stereo not drawn) [Example 87, dihydrochloride]", "> 6.70"),
]

Tell me the measured pIC50 of CC1(C)COCC(c2ccccc2)N1C(=O)NCCCCc1ccccc1 (stereo not drawn) , please.
> 6.70

Thanks! And `CC1(C)CN(C2CC2)CCN1C(=O)NCCCCc1ccccc1` ?
> 6.70

Proceed to `CC1(C)c2ccccc2CCN1C(=O)NCCc1ccccc1`
< 6.00

Moving on to CC1(C)CC(N2CCCCC2)C(Cc2ccccc2)CN1C(=O)NCCc1ccccc1 (stereo not drawn)
> 6.70

Could you do the same for `CC1(C)CN(c2ccccn2)CCN1C(=O)NCCCCc1ccccc1` , please?
< 6.00

###

The entries below come with measured pIC50 values attached.
# Test target: acid ceramidase (hACR) (Homo sapiens, UniProt Q13510)
# Construct: expressed in transfected cells; cell lysate used
# Assay name: Acid ceramidase inhibition, biochemical fluorescent assay with cell lysates overexpressing acid ceramidase, substrate Rbm14-12
# Experimental context: cell lysates overexpressing acid ceramidase; 1 hr preincubation at RT; pH 4.5; substrate Rbm14-12 6.3 μM; read-out: hACR IC50
pIC50: −log10 of the molar value.

Worked set:
# Compound, pIC50
data = [
    ("CC1(C)CCc2ccccc2N1C(=O)NCCOc1ccccc1", "6.00 to 6.70"),
    ("COc1ccc(C2COCC(C)(C)N2C(=O)NCCCCC2CC2)cc1 (stereo not drawn)", "> 6.70"),
]

Could you tell me which pIC50 is on file for `CC1(C)CCc2cccc(F)c2N1C(=O)NCCc1ccccc1` ?
6.00 to 6.70

Also, CCCCCNC(=O)N1C(c2ccccc2C)COCC1(C)C (stereo not drawn) please.
> 6.70

Quick one: `Cn1ccnc1-c1ccc2c(c1)N(C(=O)NCCc1ccccc1)C(C)(C)CC2`
< 6.00

Then what about the compound COc1ccc(C2COCC(C)(C)N2C(=O)NCCC(F)(F)F)cc1 (stereo not drawn) ?
6.00 to 6.70

Would you mind doing CCCCCNC(=O)N1C(c2ccc(OC)nc2)COCC1(C)C (stereo not drawn) as well?
> 6.70

Another compound to look at: COc1ccc(C2COCC(C)(C)N2C(=O)NCCC(C)C)cc1 (stereo not drawn)
> 6.70
